Recorded logP values for a group of compounds are listed next.
# method-summary: log P by shake-flask method
# Format: physicochemical
# test-context: n-octanol/phosphate buffer solution (PBS), pH 7.4
Keep the answer to the number alone.

Brc1ccc(-c2csc(/C=C/c3ccccc3)n2)cc1 [6e, (E)-4-(4-Bromophenyl)-2-styrylthiazole] :: 4.87

Now let's try a different one.
Can you look up the measured logP of `COc1ccc(/C=C/c2nc(-c3ccc(OC)cc3)cs2)cc1` for me? 4.18

----------
Listing: solubility of selected molecules
# method-summary: Experimental water solubility by HPLC
# Assay type: physicochemical
Answer in µg/mL, number only, no unit symbol.

COc1ccc(/C=C/c2nc(-c3ccc(OC)cc3)cs2)cc1 [6i] :: 0.0719

Shifting focus to the molecule that follows.
State the recorded solubility for this entry: Brc1ccc(-c2csc(/C=C/c3ccccc3)n2)cc1 [6e, (E)-4-(4-Bromophenyl)-2-styrylthiazole] 0.0175
